assay: Primary qHTS for delayed death inhibitors of the malarial parasite plastid, 96 hour incubation; conditions: P. falciparum luciferase reporter growth; series mostly up to 28.7 µM
The whole screen tested about 320,000 compounds, of which about 22,000 (6.9%) were called active. Inconclusive results (about 27%) are left out. Calls come from the whole dose curve; as a rule, active = well fitted inhibition curve with a large enough effect; inconclusive = small, poorly fitted or top-dose-only effect, or another doubt; inactive = no such curve, though single readings can be large or run the other way. Many of the other results were omitted from the sample, so actives are more common in it than they were.
Respond using exactly one of the listed classes: class 1 = active, class 0 = inactive

For orientation, consider the following solved cases.
COc1ccc(C(=O)NCC(=O)N/N=C/c2ccc([N+](=O)[O-])s2)cc1OC    class 0
CCCCNc1nc2c(c(=O)[nH]c(=O)n2C)n1CCOc1ccccc1    class 0
CCOC(=O)c1c(-c2ccccc2)oc2cc(Br)c(O)cc12    class 0
CC1CCN(C(=O)/C(=C\c2ccccc2F)NC(=O)c2ccccc2)CC1    class 0
Cc1cc(C)n(CCC(=O)N2CCN(S(=O)(=O)c3ccc(C)c(C)c3)CC2)n1    class 0

Query string: GET /call?item= C=C(C)Cn1c(N2CCN(CC)CC2)nc2c1c(=O)[nH]c(=O)n2C returns the recorded outcome of this test.
Result string: class 1

* * *

assay: Primary qHTS for delayed death inhibitors of the malarial parasite plastid, 96 hour incubation; conditions: P. falciparum luciferase reporter growth; series mostly up to 28.7 µM
About 22,000 (6.9%) of roughly 320,000 compounds were called active. Not shown: some 27% with an inconclusive outcome. Calls come from the whole dose curve; as a rule, active = well fitted inhibition curve with a large enough effect; inconclusive = small, poorly fitted or top-dose-only effect, or another doubt; inactive = no such curve, though single readings can be large or run the other way. Many of the other results were omitted from the sample, so actives are more common in it than they were.
Hello, when you answer, please use one of the following outcomes: active, inactive

For orientation, consider the following solved cases.
COc1ccc(C2=NN(C(=O)CSc3nnnn3C)C(c3ccco3)C2)cc1 (stereo unspecified)    inactive
Cc1ccc(S(=O)(=O)NC(=O)COc2ccccc2C)cc1    inactive
O=[N+]([O-])c1ccc(O)c(/C=N/Nc2ccccc2[N+](=O)[O-])c1    inactive

Query string: How did this test come out for COc1ccc(-c2cc(=O)oc3cc(OCC(=O)N[C@@H](Cc4c[nH]c5ccccc45)C(=O)O)ccc23)cc1 ?
Result string: inactive

Query string: Record request — test call for Cc1[nH][nH]c(=O)c1C(c1ccc2c(c1)OCO2)c1c(C)[nH][nH]c1=O
Result string: inactive

Query string: What outcome does the record of this test show for Cc1ccc(NS(=O)(=O)c2ccc(N/N=C/c3ccccc3OCC(=O)O)c([N+](=O)[O-])c2)c(C)c1 ?
Result string: active

Query string: Give the logged outcome of this assay for the following molecule: O=C1CCCN1C(=O)COc1ccc([N+](=O)[O-])cc1
Result string: inactive

Query string: Check the results log: what was the call for CCN(CC)CCC(c1ccc2c(c1)OCO2)c1c(OC)cc(OC)c2c(-c3ccccc3)cc(=O)oc12 (stereo unspecified) ?
Result string: active

Query string: For this molecule, state the assay outcome: O=C(Nc1ccc(N2CCOCC2)c(Cl)c1)c1ccc(S(=O)(=O)N2CCOCC2)cc1
Result string: inactive

Query string: Please indicate how the test categorized Cc1ccc(C)c(S(=O)(=O)Nc2cc(C)on2)c1 .
Result string: inactive

Query string: // param item: NC(=O)c1ccc(CN2CCC(Cc3ccccc3)CC2)cc1 ; yields the recorded call
Result string: inactive

Query string: // param item: COc1cc(C)cc(CN2CCC(Cc3ccccc3)CC2)c1O ; yields the recorded call
Result string: active

Query string: Could you please tell me the result logged for CCCn1c(=O)c(C(=O)Nc2cc(C)ccn2)c(O)c2ccccc21 in this assay?
Result string: inactive

Query string: Record lookup: outcome of this test for COC(OC)c1ccnc(SCc2ccccc2Cl)n1 ?
Result string: inactive

Query string: Just curious, what result did CNC(=O)C1CC(=O)N(Cc2ccc3c(c2)OCO3)C(=Nc2ccc(F)cc2)S1 (stereo unspecified) get here?
Result string: active

Query string: What is the recorded call for this molecule in the test? O=C(c1cc(=O)c2ccccc2o1)N1CCN(c2ccccc2)CC1
Result string: inactive
